B1: Splicing factor 1 (Homo sapiens), Q15637 (parent)
chain: MATGANATPLDFPSKKRKRSRWNQDTMEQKTVIPGMPTVIPPGLTREQERAYIVQLQIEDLTRKLRTGDLGIPPNPEDRSPSPEPIYNSEGKRLNTREFRTRKKLEEERHNLITEMVALNPDFKPPADYKPPATRVSDKVMIPQDEYPEINFVGLLIGPRGNTLKNIEKECNAKIMIRGKGSVKEGKVGRKDGQMLPGEDEPLHALVTANTMENVKKAVEQIRNILKQGIETPEDQNDLRKMQLRELARLNGTLREDDNRILRPWQSSETRSITNTTVCTKCGGAGHIASDCKFQRPGDPQSAQDKARMDKEYLSLMAELGEAPVPASVGSTSGPATTPLASAPRPAAPANNPPPPSLMSTTQSRPPWMNSGPSESRPYHGMHGGGPGGPGGGPHSFPHPLPSLTGGHGGHPMQHNPNGPPPPWMQPPPPPMNQGPHPPGHHGPPPMDQYLGSTPVGSGVYRLHQGKGMMPPPPMGMMPPPPPPPSGQPPPPPSGPLPPWQQQQQQPPPPPPPSSSMASSTPLPWQQNTTTTTTSAGTGSIPPWQQQQAAAAASPGAPQMQGNPTMVPLPPGVQPPLPPGAPPPPPPPPPGSAGMMYAPPPPPPPPMDPSNFVTMMGMGVAGMPPFGMPPAPPPPPPQN

Variants of: B1
conditionParameters: with U2AF2, P26368
Sequence (P26368 whole entry): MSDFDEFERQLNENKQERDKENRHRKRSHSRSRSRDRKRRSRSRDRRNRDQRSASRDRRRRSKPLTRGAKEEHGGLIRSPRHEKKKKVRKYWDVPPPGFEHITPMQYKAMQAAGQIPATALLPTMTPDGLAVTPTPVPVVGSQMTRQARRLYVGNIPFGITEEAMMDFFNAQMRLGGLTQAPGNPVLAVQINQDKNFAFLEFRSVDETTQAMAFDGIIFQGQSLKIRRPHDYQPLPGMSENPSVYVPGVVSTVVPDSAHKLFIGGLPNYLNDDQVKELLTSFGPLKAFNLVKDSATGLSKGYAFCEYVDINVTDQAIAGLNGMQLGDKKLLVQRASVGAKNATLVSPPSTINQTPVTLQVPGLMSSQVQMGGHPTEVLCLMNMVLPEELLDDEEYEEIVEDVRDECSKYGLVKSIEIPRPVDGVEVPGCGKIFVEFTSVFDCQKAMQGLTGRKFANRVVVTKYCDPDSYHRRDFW
readoutKind: effect of a mutation on the interaction

Some solved cases for reference:
K15E;K16E;R17D | disrupting interaction
W22F | with no effect
R21K | with no effect
K16E;R17D;K18E | disrupting interaction
N23A | with no effect

Query block: For the variant W22A , report effect of a mutation on the interaction.
Result block: disrupting interaction

Query block: Please report effect of a mutation on the interaction for the following variant: R21D
Result block: disrupting interaction
